meta.source: patent US9045445B2

target: glycine transporter-2 (GlyT-2) (Homo sapiens, UniProt Q9Y345); test: [14C]glycine uptake assay in HEK-GlyT-2 transfected cells; settings: HEK-GlyT-2 cells
Sequence (Q9Y345 whole entry): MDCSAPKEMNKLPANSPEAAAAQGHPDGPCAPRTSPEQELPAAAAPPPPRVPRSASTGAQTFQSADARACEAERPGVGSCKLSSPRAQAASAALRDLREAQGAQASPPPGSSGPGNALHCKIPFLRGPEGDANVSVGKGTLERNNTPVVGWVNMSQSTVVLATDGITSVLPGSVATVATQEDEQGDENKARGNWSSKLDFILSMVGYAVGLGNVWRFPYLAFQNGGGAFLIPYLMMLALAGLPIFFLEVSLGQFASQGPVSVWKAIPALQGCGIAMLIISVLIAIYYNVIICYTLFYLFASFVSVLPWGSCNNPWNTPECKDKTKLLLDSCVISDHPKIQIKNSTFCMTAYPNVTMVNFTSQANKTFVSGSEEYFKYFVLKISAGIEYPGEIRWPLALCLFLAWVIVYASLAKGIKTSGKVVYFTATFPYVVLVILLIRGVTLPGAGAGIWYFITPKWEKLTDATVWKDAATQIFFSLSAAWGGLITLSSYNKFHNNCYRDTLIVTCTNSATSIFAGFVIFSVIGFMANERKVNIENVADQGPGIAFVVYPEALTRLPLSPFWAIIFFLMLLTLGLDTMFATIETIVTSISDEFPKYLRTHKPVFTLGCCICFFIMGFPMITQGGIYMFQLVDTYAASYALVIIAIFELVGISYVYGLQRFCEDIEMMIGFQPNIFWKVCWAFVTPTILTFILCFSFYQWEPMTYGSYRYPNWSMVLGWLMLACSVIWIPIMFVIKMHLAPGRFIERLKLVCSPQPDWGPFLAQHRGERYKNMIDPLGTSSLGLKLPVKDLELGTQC
pIC50: −log10 of the molar value. Counter-ions that a name gives are not always drawn.
assayReadout: pIC50

GET pIC50 where system = glycine transporter-2 (GlyT-2) (Homo sapiens, UniProt Q9Y345) and item = Cn1cc(S(=O)(=O)N2CCN(C3(CNC(=O)c4c(F)cccc4F)CCC(F)(F)CC3)CC2)nn1 [compound 189, Hydrochloride]
< 4.12

GET pIC50 where system = glycine transporter-2 (GlyT-2) (Homo sapiens, UniProt Q9Y345) and item = CCCS(=O)(=O)N1CCN(C2(CNC(=O)c3ccc(Cl)cc3C(F)(F)F)CCC(F)(F)CC2)CC1 [compound 245, Hydrochloride]
< 4.12

GET pIC50 where system = glycine transporter-2 (GlyT-2) (Homo sapiens, UniProt Q9Y345) and item = CCCS(=O)(=O)N1CCN(C2(CNC(=O)c3c(C)cccc3C)CCOCC2)CC1 [compound 120, Hydrochloride]
4.38

GET pIC50 where system = glycine transporter-2 (GlyT-2) (Homo sapiens, UniProt Q9Y345) and item = CCCS(=O)(=O)N1CCN(C2(CNC(=O)c3ccc(C)cc3C)CCCCC2)CC1 [compound 30, Hydrochloride]
< 4.12

----------
target: glycine transporter-1 (GlyT-1) (Homo sapiens, UniProt P48067); construct: JAR cells (ATCC#HTB-144), which endogenously express GlyT-1; host or cells: JAR human choriocarcinoma cells; assay: [14C]glycine uptake assay in JAR cells endogenously expressing GlyT-1 (scintillation proximity); assay type: cell-based; details: JAR cells, [14C]glycine 5 μM, 3 hour incubation; read-out: GlyT-1 IC50
Sequence (P48067 whole entry): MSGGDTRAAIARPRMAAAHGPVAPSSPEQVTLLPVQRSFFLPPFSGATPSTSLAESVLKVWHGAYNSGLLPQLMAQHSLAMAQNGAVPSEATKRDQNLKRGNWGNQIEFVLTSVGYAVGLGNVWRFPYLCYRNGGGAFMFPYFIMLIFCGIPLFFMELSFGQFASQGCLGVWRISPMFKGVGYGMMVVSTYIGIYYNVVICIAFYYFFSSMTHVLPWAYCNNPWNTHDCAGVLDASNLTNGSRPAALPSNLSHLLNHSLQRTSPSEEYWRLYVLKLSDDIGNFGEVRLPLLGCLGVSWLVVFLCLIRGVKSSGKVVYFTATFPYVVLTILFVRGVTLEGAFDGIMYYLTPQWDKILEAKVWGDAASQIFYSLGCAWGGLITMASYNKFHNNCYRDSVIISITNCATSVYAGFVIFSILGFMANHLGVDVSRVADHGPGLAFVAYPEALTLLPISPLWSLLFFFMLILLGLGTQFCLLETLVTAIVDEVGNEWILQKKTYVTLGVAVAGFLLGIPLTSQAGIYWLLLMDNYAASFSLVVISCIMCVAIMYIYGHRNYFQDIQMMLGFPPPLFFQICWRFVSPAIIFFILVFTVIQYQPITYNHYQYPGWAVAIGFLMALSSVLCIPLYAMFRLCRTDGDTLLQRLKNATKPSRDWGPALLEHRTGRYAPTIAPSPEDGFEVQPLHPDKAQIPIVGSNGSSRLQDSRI
pIC50: −log10 of the molar value. Structures can show the parent of a compound that is named as a salt.
assayReadout: pIC50

In the examples that follow, each entry is paired with its recorded pIC50.
Cc1ccc(C(=O)NCC2(N3CCN(S(=O)(=O)c4cn(C)nn4)CC3)CCC(F)(F)CC2)c(Cl)c1F [compound 242, Hydrochloride] | 9.00
CCCS(=O)(=O)N1CCN(C2(CNC(=O)c3c(N)cccc3F)CCCCC2)CC1 [compound 41, Hydrochloride] | 7.15
CCCS(=O)(=O)N1CCN(C2(CNC(=O)c3c(C)cc(Cl)cc3C)CCC(F)(F)CC2)CC1 [compound 266, Hydrochloride] | 7.96
Cn1cnc(S(=O)(=O)N2CCN(C3(CNC(=O)c4c(F)cccc4C(F)(F)F)CCC(F)(F)CC3)CC2)c1 [compound 172, Hydrochloride] | 8.52
CCCS(=O)(=O)N1CCN(C2(CNC(=O)c3c(Cl)cccc3C(F)(F)F)CCC(F)(F)CC2)CC1 [compound 157, Hydrochloride] | 7.23

(A) CCCS(=O)(=O)N1CCN(C2(CNC(=O)c3ccc(F)cc3OC)CCCCCC2)CC1 [compound 52, Hydrochloride]
(B) CCCS(=O)(=O)N1CCN(C2(CNC(=O)c3ccc(F)cc3Cl)CCC(F)(F)CC2)CC1 [compound 154, Hydrochloride]
Field: lower pIC50 | Options: A / B Please respond with the label that marks your chosen entry.
A

----------
Structures can show the parent of a compound that is named as a salt.
assayReadout: melting point (°C)

Cn1cc(S(=O)(=O)N2CCN(C3(CNC(=O)c4ccc(C(F)(F)F)cc4C(F)(F)F)CCOCC3)CC2)nn1 (as salt: hydrochloride) | 145
Cl.Cn1cc(S(=O)(=O)N2CCN(C3(CNC(=O)c4ccc(C(F)(F)F)cc4Cl)CCOCC3)CC2)nn1 | 147
